Readings of inhibition for the listed compounds
molecular target: Vascular endothelial growth factor receptor 2 (Homo sapiens) (UniProt P35968); conditions: at 1 µM;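 further: each value is the mean percent inhibition of KDR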
Sequence (P35968 whole entry): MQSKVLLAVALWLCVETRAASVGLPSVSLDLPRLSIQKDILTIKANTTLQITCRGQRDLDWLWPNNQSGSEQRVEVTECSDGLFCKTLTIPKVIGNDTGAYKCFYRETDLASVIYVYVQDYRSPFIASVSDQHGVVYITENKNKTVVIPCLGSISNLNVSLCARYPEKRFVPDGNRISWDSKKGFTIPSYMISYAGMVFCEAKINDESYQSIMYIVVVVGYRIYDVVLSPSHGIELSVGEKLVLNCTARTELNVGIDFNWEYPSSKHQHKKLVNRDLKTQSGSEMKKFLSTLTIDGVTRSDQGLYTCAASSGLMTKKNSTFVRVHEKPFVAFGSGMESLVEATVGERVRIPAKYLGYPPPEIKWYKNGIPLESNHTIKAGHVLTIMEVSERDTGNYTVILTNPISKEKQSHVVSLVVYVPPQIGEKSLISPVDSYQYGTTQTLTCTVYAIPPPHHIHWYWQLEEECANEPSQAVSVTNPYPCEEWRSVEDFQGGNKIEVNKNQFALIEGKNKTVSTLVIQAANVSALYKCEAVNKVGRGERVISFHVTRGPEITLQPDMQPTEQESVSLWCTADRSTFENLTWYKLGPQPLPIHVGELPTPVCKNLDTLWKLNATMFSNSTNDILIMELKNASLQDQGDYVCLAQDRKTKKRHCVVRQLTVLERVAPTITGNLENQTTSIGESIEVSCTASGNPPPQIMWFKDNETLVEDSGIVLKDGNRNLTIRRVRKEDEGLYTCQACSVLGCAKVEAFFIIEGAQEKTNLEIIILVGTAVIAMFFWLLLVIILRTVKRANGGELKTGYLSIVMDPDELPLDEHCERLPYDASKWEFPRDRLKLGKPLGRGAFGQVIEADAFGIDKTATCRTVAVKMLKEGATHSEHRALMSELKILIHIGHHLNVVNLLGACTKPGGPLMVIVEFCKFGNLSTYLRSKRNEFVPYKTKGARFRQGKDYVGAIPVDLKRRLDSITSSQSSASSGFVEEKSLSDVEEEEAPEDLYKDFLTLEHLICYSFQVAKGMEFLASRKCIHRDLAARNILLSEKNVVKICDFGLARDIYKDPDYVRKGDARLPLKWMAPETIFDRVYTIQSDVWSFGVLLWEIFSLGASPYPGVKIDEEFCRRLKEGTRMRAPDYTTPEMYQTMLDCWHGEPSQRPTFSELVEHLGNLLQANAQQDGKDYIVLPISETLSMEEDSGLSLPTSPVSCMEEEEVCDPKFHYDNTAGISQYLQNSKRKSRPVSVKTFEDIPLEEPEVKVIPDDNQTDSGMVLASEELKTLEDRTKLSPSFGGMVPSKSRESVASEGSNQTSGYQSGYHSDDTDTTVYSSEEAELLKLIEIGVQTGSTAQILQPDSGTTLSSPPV

{"Compound": "CS(=O)(=O)Nc1ccc(-c2ccc3c(NC(=O)C4CC4)n[nH]c3c2)cc1", "Tgt": "Vascular endothelial growth factor receptor 2 (Homo sapiens) (UniProt P35968)", "Units Of Measure": "%", "inhibition": 9.88}
{"Compound": "COc1cccc(-n2ncc3c(N/N=C/c4ccc(C(=O)NCCN(C)C)cc4)ncnc32)c1", "Tgt": "Vascular endothelial growth factor receptor 2 (Homo sapiens) (UniProt P35968)", "Units Of Measure": "%", "inhibition": 68.7}
{"Compound": "O=C(O[C@H]1CN[C@H](C#Cc2cc3ncnc(Nc4ccc5c(cnn5Cc5ccccc5)c4)c3s2)C1)N1CCOCC1", "Tgt": "Vascular endothelial growth factor receptor 2 (Homo sapiens) (UniProt P35968)", "Units Of Measure": "%", "inhibition": 8.91}
{"Compound": "COc1ccc2ncn(-c3cc(O[C@H](C)c4ccccc4C(F)(F)F)c(C(N)=O)s3)c2c1", "Tgt": "Vascular endothelial growth factor receptor 2 (Homo sapiens) (UniProt P35968)", "Units Of Measure": "%", "inhibition": 14.1}
{"Compound": "COC(=O)Nc1nc2ccc(Oc3ccc(NC(=O)Nc4cc(C(F)(F)F)ccc4F)cc3)cc2s1", "Tgt": "Vascular endothelial growth factor receptor 2 (Homo sapiens) (UniProt P35968)", "Units Of Measure": "%", "inhibition": 85.1}
{"Compound": "CC1=C(C(=O)Nc2ccc3[nH]nc(C)c3c2)C(c2ccc(C(F)(F)F)cc2)CC(=O)N1 (centres undefined)", "Tgt": "Vascular endothelial growth factor receptor 2 (Homo sapiens) (UniProt P35968)", "Units Of Measure": "%", "inhibition": 11}
{"Compound": "COc1cc2c(cc1Nc1nc(Nc3cccc(F)c3C(N)=O)c3cc[nH]c3n1)N(C(=O)CN1CCN(C(C)C)CC1)CC2", "Tgt": "Vascular endothelial growth factor receptor 2 (Homo sapiens) (UniProt P35968)", "Units Of Measure": "%", "inhibition": 9.98}
{"Compound": "N#Cc1ccc2c(-c3ccnc(NC4CC4)n3)c(-c3ccc(F)cc3)nn2c1", "Tgt": "Vascular endothelial growth factor receptor 2 (Homo sapiens) (UniProt P35968)", "Units Of Measure": "%", "inhibition": 14.6}
{"Compound": "CS(=O)(=O)CCNCc1ccc(-c2ccc3ncnc(Nc4ccc(OCc5cccc(C(F)(F)F)c5)cc4)c3c2)o1", "Tgt": "Vascular endothelial growth factor receptor 2 (Homo sapiens) (UniProt P35968)", "Units Of Measure": "%", "inhibition": 11}
{"Compound": "OCCCNc1nccc(-c2c(-c3ccc(F)cc3)nn3cc(C(F)(F)F)ccc23)n1", "Tgt": "Vascular endothelial growth factor receptor 2 (Homo sapiens) (UniProt P35968)", "Units Of Measure": "%", "inhibition": 6.21}
{"Compound": "FC(F)(F)CNc1nccc(-c2cnn3ncccc23)n1", "Tgt": "Vascular endothelial growth factor receptor 2 (Homo sapiens) (UniProt P35968)", "Units Of Measure": "%", "inhibition": 4.88}
{"Compound": "O=C(Nc1n[nH]c2nnc(-c3cccnc3)cc12)C1CC1", "Tgt": "Vascular endothelial growth factor receptor 2 (Homo sapiens) (UniProt P35968)", "Units Of Measure": "%", "inhibition": 2.5}
{"Compound": "CCS(=O)(=O)c1ccc(OC)c(Nc2ncc(-c3cccc(C(C)=O)c3)o2)c1", "Tgt": "Vascular endothelial growth factor receptor 2 (Homo sapiens) (UniProt P35968)", "Units Of Measure": "%", "inhibition": 58.9}
{"Compound": "Cc1c2ccc(N(C)c3ccnc(Nc4cccc(S(N)(=O)=O)c4)n3)cc2nn1C", "Tgt": "Vascular endothelial growth factor receptor 2 (Homo sapiens) (UniProt P35968)", "Units Of Measure": "%", "inhibition": 73}
{"Compound": "CS(=O)(=O)CCNCc1ccc(-c2ccc3ncnc(Nc4ccc(OCc5ccccc5)cc4)c3c2)o1", "Tgt": "Vascular endothelial growth factor receptor 2 (Homo sapiens) (UniProt P35968)", "Units Of Measure": "%", "inhibition": 6.56}
{"Compound": "COc1c(C(N)=O)cc(-c2ccc(Cl)cc2)cc1-c1ccc(S(N)(=O)=O)cc1", "Tgt": "Vascular endothelial growth factor receptor 2 (Homo sapiens) (UniProt P35968)", "Units Of Measure": "%", "inhibition": 9.32}
{"Compound": "O=C(O[C@H]1CN[C@H](C#Cc2cc3ncnc(Nc4ccc(OCc5cccc(F)c5)c(Cl)c4)c3s2)C1)N1CCOCC1", "Tgt": "Vascular endothelial growth factor receptor 2 (Homo sapiens) (UniProt P35968)", "Units Of Measure": "%", "inhibition": 7.79}
{"Compound": "CN(C)CCNC(=O)Nc1ccc(N(C)c2ccnc(Nc3ccc(CS(C)(=O)=O)cc3)n2)cc1", "Tgt": "Vascular endothelial growth factor receptor 2 (Homo sapiens) (UniProt P35968)", "Units Of Measure": "%", "inhibition": 18.9}
{"Compound": "COc1cc(N2CCN(C(C)C)CC2)ccc1Nc1nc(Nc2cccc3ncccc23)c2cc[nH]c2n1", "Tgt": "Vascular endothelial growth factor receptor 2 (Homo sapiens) (UniProt P35968)", "Units Of Measure": "%", "inhibition": 3.64}
{"Compound": "COc1ccc(Nc2ncc(-c3ccccc3)o2)cc1OC", "Tgt": "Vascular endothelial growth factor receptor 2 (Homo sapiens) (UniProt P35968)", "Units Of Measure": "%", "inhibition": 44.2}
{"Compound": "Cn1c(-c2nonc2N)nc2cnccc21", "Tgt": "Vascular endothelial growth factor receptor 2 (Homo sapiens) (UniProt P35968)", "Units Of Measure": "%", "inhibition": 12.2}
{"Compound": "CC1(C)CC(n2cnc(-c3ccc(F)cc3)c2-c2ccnc(N)n2)CC(C)(C)N1", "Tgt": "Vascular endothelial growth factor receptor 2 (Homo sapiens) (UniProt P35968)", "Units Of Measure": "%", "inhibition": 5.32}
{"Compound": "CS(=O)(=O)CCNCc1ccoc1-c1ccc2ncnc(Nc3ccc(OCc4ccccc4)cc3)c2c1", "Tgt": "Vascular endothelial growth factor receptor 2 (Homo sapiens) (UniProt P35968)", "Units Of Measure": "%", "inhibition": 5.6}
{"Compound": "CC1=C(C(=O)Nc2ccc3[nH]ncc3c2)C(c2ccc(F)cc2)N=C(c2ccc(C(F)(F)F)nc2)N1 (centres undefined)", "Tgt": "Vascular endothelial growth factor receptor 2 (Homo sapiens) (UniProt P35968)", "Units Of Measure": "%", "inhibition": 9.39}
